Cited source for all entries: paper PMC12221113

Molecular target: UniProt:O60259
Sequence (O60259 33-260): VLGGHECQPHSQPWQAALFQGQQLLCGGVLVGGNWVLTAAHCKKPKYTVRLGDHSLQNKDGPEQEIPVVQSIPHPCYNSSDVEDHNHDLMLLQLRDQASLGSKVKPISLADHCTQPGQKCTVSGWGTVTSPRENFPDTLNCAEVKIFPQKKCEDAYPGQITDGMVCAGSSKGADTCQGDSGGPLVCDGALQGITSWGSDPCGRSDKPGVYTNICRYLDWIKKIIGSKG
Assay: KLK8 fluorogenic enzyme inhibition assay (Boc-VPR-AMC)
Conditions: IC50 KLK8, 15 min preincubation at 37 °C; NI = not a hit (not above 50% inhibition at 50 μM)
pIC50: −log10 of the molar value.
Please go through the items and note down their pIC50.

Input line: Determine its reported pIC50: O=C(O)c1ccc(-n2nc(-c3ccccc3O)nc2-c2ccccc2O)cc1 [3a, Deferasirox]
Output line: 4.53

Input line: Determine its reported pIC50: Oc1ccccc1-c1n[nH]c(-c2ccccc2O)n1 [3c]
Output line: < 4.30

Input line: Determine its reported pIC50: Oc1ccccc1-c1noc(-c2ccccc2O)n1 [compound 23]
Output line: < 4.30

Input line: Determine its reported pIC50: COc1ccc(-n2nc(-c3ccccc3O)nc2-c2ccccc2O)cc1 [3q]
Output line: < 4.30

Input line: Determine its reported pIC50: Oc1ccccc1-c1nc(-c2ccccc2O)n(-c2ccccc2)n1 [3n]
Output line: < 4.30
